Measured On: T1, human CD33 extracellular domain (human, UniProt P20138 18-259)
T1 construct: soluble monomeric ECD; also called human CD33 ECD; hCD33
Procedure Text: SPR, Fab captured, 37C;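 further: fabs captured on an anti-Fab surface, soluble monomeric CD33 ECD flowed over at several concentrations, double-referenced curves fit to a 1:1 binding model, KD taken as koff/kon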
Quantity Kind: pKd
Please report pKd as the negative decimal logarithm of the molar concentration, giving only the number.

INSERT INTO results (binder, meas_value) VALUES
  ('ADI-11819 Fab (Fab, V domains shown, Fab fragment; also called Ab8) VH: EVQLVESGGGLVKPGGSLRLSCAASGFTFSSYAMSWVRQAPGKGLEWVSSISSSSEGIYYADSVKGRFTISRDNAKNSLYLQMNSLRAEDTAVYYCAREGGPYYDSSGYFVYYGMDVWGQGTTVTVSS VL: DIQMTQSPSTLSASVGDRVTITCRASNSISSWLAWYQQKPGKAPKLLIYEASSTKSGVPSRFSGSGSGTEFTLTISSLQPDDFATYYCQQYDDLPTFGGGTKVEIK', 10.70),
  ('ADI-10161 Fab (Fab, V domains shown, Fab fragment; also called Ab16) VH: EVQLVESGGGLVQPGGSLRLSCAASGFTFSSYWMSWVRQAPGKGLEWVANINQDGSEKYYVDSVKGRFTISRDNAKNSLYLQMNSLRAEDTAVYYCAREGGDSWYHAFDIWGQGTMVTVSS VL: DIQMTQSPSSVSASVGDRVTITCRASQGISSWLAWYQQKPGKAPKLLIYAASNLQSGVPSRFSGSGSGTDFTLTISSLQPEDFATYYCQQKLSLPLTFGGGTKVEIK', 7.69),
  ('ADI-11839 Fab (Fab, V domains shown, Fab fragment; also called Ab28) VH: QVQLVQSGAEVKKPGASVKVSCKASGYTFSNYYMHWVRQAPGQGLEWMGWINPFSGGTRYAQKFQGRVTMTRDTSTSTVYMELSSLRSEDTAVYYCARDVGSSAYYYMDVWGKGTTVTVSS VL: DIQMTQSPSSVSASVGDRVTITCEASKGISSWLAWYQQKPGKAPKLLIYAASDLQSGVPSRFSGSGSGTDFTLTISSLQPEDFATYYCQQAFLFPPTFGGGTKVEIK', 7.73);

Form field: reported pKd of ADI-10164 Fab (Fab, V domains shown, Fab fragment; also called Ab18) VH: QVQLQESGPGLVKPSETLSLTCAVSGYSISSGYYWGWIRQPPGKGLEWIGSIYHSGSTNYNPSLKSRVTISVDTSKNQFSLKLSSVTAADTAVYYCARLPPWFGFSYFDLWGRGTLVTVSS VL: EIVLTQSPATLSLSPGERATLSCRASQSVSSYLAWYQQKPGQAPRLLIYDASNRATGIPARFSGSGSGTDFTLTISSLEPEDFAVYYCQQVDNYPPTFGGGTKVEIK
7.50
